Target: ENL YEATS domain (AviSUMO-ENL YEATS) (Homo sapiens, UniProt Q03111)
Construct: encoding ENL YEATS (aa 1−148) was cloned in pET28a-; made in house; host or cells: E. coli BL21(DE3pLysS), co-expressed with BirA (pBirAcm)
Sequence (Q03111 1-148): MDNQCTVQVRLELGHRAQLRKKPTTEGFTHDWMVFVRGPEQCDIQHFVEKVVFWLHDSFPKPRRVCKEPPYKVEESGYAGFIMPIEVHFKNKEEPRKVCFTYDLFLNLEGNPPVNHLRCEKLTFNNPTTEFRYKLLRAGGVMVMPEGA
Test: Phage panning of BuK-containing 7-mer library against AviSUMO-ENL YEATS with Illumina NGS abundance
Conditions: sheet ENLR3: round 3 of panning against ENL YEATS; TAG = amber codon (BuK); 7-mer library positions V1-V7
MEASURED PARAMETER: n (number of NGS reads of the unique amino acid sequence)

[[record]]
substance = "YDVYCCTAG"
experimental_result = 5

[[record]]
substance = "YDVYRYTAG"
experimental_result = 9

[[record]]
substance = "FLFDTTAGT"
experimental_result = 1

[[record]]
substance = "ILATAGSVN"
experimental_result = 1

[[record]]
substance = "CWSTAGNGD"
experimental_result = 1

[[record]]
substance = "TAGCGPRTAGD"
experimental_result = 3

[[record]]
substance = "DLVYCYTAG"
experimental_result = 1

[[record]]
substance = "HCGPRTAGD"
experimental_result = 10

[[record]]
substance = "LLWTAGLAS"
experimental_result = 1

[[record]]
substance = "YDVYCYL"
experimental_result = 2

[[record]]
substance = "CWIIETAGG"
experimental_result = 22

[[record]]
substance = "WLIIETAGD"
experimental_result = 2

[[record]]
substance = "SWIIETAGG"
experimental_result = 5

[[record]]
substance = "YDDYCYTAG"
experimental_result = 2

